Where do these numbers come from? They come from patent US11987588B2.

tested_on: Beta-3 Adrenergic Receptor (Homo sapiens (Human))
measurement_description: Homogeneous Time-Resolved Fluorescence (HTRF) cAMP antagonist assay, IC50 determination
protocol_conditions: CHO-K1 cells stably expressing recombinant receptor, isoproterenol at EC90
quantity_name: IC50 (nM)

# example entries with known answers
CNS(=O)(=O)c1cccc(OC[C@@H](O)CN[C@H]2COC3(CCN(S(=O)(=O)c4cnc5c(c4)NCCO5)CC3)C2)c1 [Compound 444] = 31.8
CN(C)S(=O)(=O)c1cccc(OC[C@@H](O)CNC2COC3(CCN(S(=O)(=O)c4ccc5c(c4)CCCC5)CC3)C2)c1 (stereo partly shown) [Compound 253] = 22.6
CNS(=O)(=O)c1cccc(OC[C@@H](O)CNC2COC3(CCN(S(=O)(=O)c4cccc(-c5ccc(OCC#N)cc5)c4)CC3)C2)c1 (stereo partly shown) [Compound 114] = 10.3
CNS(=O)(=O)c1cccc(OC[C@@H](O)CNC2COC3(CCN(S(=O)(=O)c4ccc(F)c(C)c4)CC3)C2)c1 (stereo partly shown) [Compound 149] = 20.6

1 = CNS(=O)(=O)c1cccc(OC[C@@H](O)CNC2COC3(CCN(S(=O)(=O)c4cc(Cl)ccc4C#N)CC3)C2)c1 (stereo partly shown) [Compound 145]
2 = CNS(=O)(=O)c1cccc(OC[C@@H](O)CNC2COC3(CCN(S(=O)(=O)c4cccc(-c5ccc(CN)nc5)c4)CC3)C2)c1 (stereo partly shown) [Compound 387]
Qu. // pick larger IC50 from pair: 1 vs 2 Your choice should be expressed through its label.
Ans. 2

----------
tested_on: Beta-3 Adrenergic Receptor (Homo sapiens (Human))
measurement_description: Homogeneous Time-Resolved Fluorescence (HTRF) cAMP antagonist assay, IC50 determination
protocol_conditions: CHO-K1 cells stably expressing recombinant receptor, isoproterenol at EC90
quantity_name: IC50 (nM)

CNS(=O)(=O)c1cccc(OC[C@@H](O)CN[C@H]2COC3(CCN(c4nccc(C(=O)O)n4)CC3)C2)c1 [Compound 582] = 100000
CNS(=O)(=O)c1cccc(OC[C@@H](O)CN[C@@H]2COC3(CCN(S(=O)(=O)c4ccc(OC)c(-c5ccc(C6(N)CC6)cc5)c4)CC3)C2)c1 [Compound 463] = 24.3
CCNS(=O)(=O)c1cccc(OC[C@@H](O)CNC2COC3(CCN(S(=O)(=O)c4ccc5nsnc5c4)CC3)C2)c1 (stereo partly shown) [Compound 229] = 272

P = CNS(=O)(=O)c1cccc(OC[C@@H](O)CNC2COC3(CCN(S(=O)(=O)c4cn(C)cn4)CC3)C2)c1 (stereo partly shown) [Compound 194]
Q = CNS(=O)(=O)c1cccc(OC[C@@H](O)CNC2COC3(CCN(S(=O)(=O)c4ccc(C#N)cc4)CC3)C2)c1 (stereo partly shown) [Compound 44]
R = CNS(=O)(=O)c1cccc(OC[C@@H](O)CN[C@H]2COC3(CCN(S(=O)(=O)c4ccc(Br)c(C)c4)CC3)C2)c1 [Compound 271]
S = CCn1ncc(S(=O)(=O)N2CCC3(CC2)CC(NC[C@H](O)COc2cccc(S(=O)(=O)NC)c2)CO3)c1C (stereo partly shown) [Compound 329]
T = O=S(=O)(NCC1CCCNC1)c1cccc(OC[C@@H](O)CNC2COC3(CCN(S(=O)(=O)c4ccc5ccccc5c4)CC3)C2)c1 (stereo partly shown) [Compound 168]
Qu. Returns the items ordered by IC50, from maximum to minimum. Reply with the item labels sorted in the order that was asked for.
Ans. T, S, P, Q, R
(T: 1470 nM, S: 156 nM, P: 97.6 nM, Q: 34.1 nM, R: 7.53 nM)

I = CNS(=O)(=O)c1cccc(OC[C@@H](O)CN[C@H]2COC3(CCN(S(=O)(=O)c4cnc5c(c4)N(C)C[C@@H](C)O5)CC3)C2)c1 [Compound 468]
II = CCNS(=O)(=O)c1cccc(OC[C@@H](O)CNC2COC3(CCN(S(=O)(=O)c4cnn(-c5ccccc5)c4C)CC3)C2)c1 (stereo partly shown) [Compound 230]
III = CN(C)S(=O)(=O)c1cccc(OC[C@@H](O)CNC2COC3(CCN(S(=O)(=O)c4ccc(-c5ccccc5)s4)CC3)C2)c1 (stereo partly shown) [Compound 255]
IV = NS(=O)(=O)c1cccc(OC[C@@H](O)CN[C@H]2COC3(CCN(S(=O)(=O)c4c[nH]c5ccc(F)cc5c4=O)CC3)C2)c1 [Compound 552]
V = COCCNS(=O)(=O)c1cccc(OC[C@@H](O)CN[C@H]2COC3(CCN(S(=O)(=O)c4cnc5cc[nH]c5c4)CC3)C2)c1 [Compound 530]
Qu. # ascending order, key=IC50 In plain terms: list the labels in the order you were asked to.
Ans. IV, I, III, II, V
(IV: 17.8 nM, I: 31.1 nM, III: 55.1 nM, II: 85.4 nM, V: 214 nM)

----------
tested_on: Beta-3 Adrenergic Receptor (Homo sapiens (Human), UniProt P13945)
Sequence (P13945 whole entry, species assumed): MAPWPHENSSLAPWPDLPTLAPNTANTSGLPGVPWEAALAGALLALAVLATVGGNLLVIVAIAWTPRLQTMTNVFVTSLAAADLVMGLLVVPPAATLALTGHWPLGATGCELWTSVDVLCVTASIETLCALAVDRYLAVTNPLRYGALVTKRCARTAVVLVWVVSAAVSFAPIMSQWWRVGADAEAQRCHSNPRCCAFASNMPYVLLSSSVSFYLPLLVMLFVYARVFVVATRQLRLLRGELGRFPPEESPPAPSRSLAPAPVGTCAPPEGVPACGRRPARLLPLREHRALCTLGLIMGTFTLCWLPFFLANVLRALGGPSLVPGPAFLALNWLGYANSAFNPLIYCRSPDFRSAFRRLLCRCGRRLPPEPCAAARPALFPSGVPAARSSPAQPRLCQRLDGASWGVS
measurement_description: Homogeneous Time-Resolved Fluorescence (HTRF) cAMP antagonist assay, IC50 determination
protocol_conditions: CHO-K1 cells stably expressing recombinant receptor, isoproterenol at EC90
Method: HTRF cAMP assays were performed according to manufacturer's instructions (Cisbio, cAMP Dynamic 2 Assay Kit; #62AM4PEJ). CHO-K1 cells stably expressing recombinant receptor were harvested and suspended in warm PBS to make a 300,000 cells/mL stock. […] Compounds were dissolved and serially diluted (5-fold) in DMSO to generate a 10-point dose response stock. […] The EC90 for isoproterenol, a beta-adrenergic agonist, was determined in separate experiments using standard methods to measure agonist potencies. […]
quantity_name: IC50 (nM)

Worked examples follow.
CCOc1ccc(-c2ccc(CNC(C)C)cc2)cc1S(=O)(=O)N1CCC2(CC1)C[C@@H](NC[C@H](O)COc1cccc(S(=O)(=O)NC)c1)CO2 [Compound 439] = 27.2
CCOc1ccc(-c2ccc(CNC(C)C)cc2)cc1S(=O)(=O)N1CCC2(CC1)C[C@H](NC[C@H](O)COc1cccc(S(=O)(=O)NC)c1)CO2 [Compound 438] = 20.5
CNS(=O)(=O)c1cccc(OC[C@@H](O)CNC2COC3(CCN(S(=O)(=O)c4cccc(-c5ccc(OCCCN(C)C)nc5)c4)CC3)C2)c1 (stereo partly drawn) [Compound 372] = 41.8

a = CNS(=O)(=O)c1cccc(OC[C@@H](O)CN[C@@H]2COC3(CCN(S(=O)(=O)c4cccc(-c5cnn(C)c5)c4)CC3)C2)c1 [Compound 216]
b = CNS(=O)(=O)c1cccc(OC[C@@H](O)CN[C@H]2COC3(CCN(S(=O)(=O)c4cnn(-c5ccccc5)c4C)CC3)C2)c1 [Compound 281]
Qu. Which gives the smaller IC50 number: a or b ? Pick one; state its label.
Ans. b

A = O=C1CCCN1CCNS(=O)(=O)c1cccc(OC[C@@H](O)CNC2COC3(CCN(S(=O)(=O)c4ccc5ccccc5c4)CC3)C2)c1 (stereo partly drawn) [Compound 164]
B = CNS(=O)(=O)c1cccc(OC[C@@H](O)CN[C@H]2COC3(CCN(S(=O)(=O)c4cnc5nc(C)[nH]c5c4)CC3)C2)c1 [Compound 486]
Qu. Lower value of IC50 belongs to which: A or B ? Record your answer as the label of the chosen record.
Ans. B
(B: 41.5 nM, A: 84.9 nM)

1 = CCNS(=O)(=O)c1cccc(OC[C@@H](O)CNC2COC3(CCN(S(=O)(=O)c4ccc5c(c4)NC(=O)CO5)CC3)C2)c1 (stereo partly drawn) [Compound 228]
2 = CNS(=O)(=O)c1cccc(OC[C@@H](O)CNC2COC3(CCN(S(=O)(=O)c4cccc(-c5cccc(C(=O)O)c5)c4)CC3)C2)c1 (stereo partly drawn) [Compound 112]
Qu. Lower value of IC50 belongs to which: 1 or 2 ? Pick one; state its label.
Ans. 1
(1: 24.2 nM, 2: 239 nM)

I = CNS(=O)(=O)c1cccc(OC[C@@H](O)CNC2COC3(CCN(S(=O)(=O)c4c(C)noc4C)CC3)C2)c1 (stereo partly drawn) [Compound 188]
II = CCn1cc(S(=O)(=O)N2CCC3(CC2)C[C@@H](NC[C@H](O)COc2cccc(S(=O)(=O)NC)c2)CO3)c(=O)c2cccc(C)c21 [Compound 545]
Qu. Pick one: I or II . Which one has the lower reported IC50? Please respond with the label that marks your chosen entry.
Ans. I
(I: 18.1 nM, II: 121 nM)

----------
tested_on: UniProtKB P13945
measurement_description: Homogeneous Time-Resolved Fluorescence (HTRF) cAMP antagonist assay, IC50 determination
protocol_conditions: CHO-K1 cells stably expressing recombinant receptor, isoproterenol at EC90
pIC50: −log10 of the molar value.
quantity_name: pIC50

CNS(=O)(=O)c1cccc(OC[C@@H](O)CN[C@H]2COC3(CCN(S(=O)(=O)c4cccc(Cl)c4)CC3)C2)c1 = 7.68
CNS(=O)(=O)c1cccc(OC[C@@H](O)CNC2COC3(CCN(S(=O)(=O)c4ccc(Cl)cc4)CC3)C2)c1 (stereo partly drawn) = 7.82
CNS(=O)(=O)c1cccc(OC[C@@H](O)CN[C@@H]2COC3(CCN(S(=O)(=O)c4cccc(-c5ccc(CN)cc5)c4C)CC3)C2)c1 = 7.70
CCNS(=O)(=O)c1cccc(OC[C@@H](O)CNC2COC3(CCN(S(=O)(=O)c4cccc(Cl)c4)CC3)C2)c1 (stereo partly drawn) = 7.48

I = CNS(=O)(=O)c1cccc(OC[C@@H](O)CNC2COC3(CCN(S(=O)(=O)c4cccc(-c5ccc(CNCCC(C)C)cc5)c4)CC3)C2)c1 (stereo partly drawn)
II = CNS(=O)(=O)c1cccc(OC[C@@H](O)CNC2COC3(CCN(S(=O)(=O)c4cc(C)ccc4F)CC3)C2)c1 (stereo partly drawn)
Qu. # min-compare on pIC50 between I and II Write down the label attached to your selection.
Ans. I
